Origin of measurements: patent US20100093706A1

Target: DAT (r) (Rattus norvegicus, UniProt P23977)
Sequence (P23977 whole entry): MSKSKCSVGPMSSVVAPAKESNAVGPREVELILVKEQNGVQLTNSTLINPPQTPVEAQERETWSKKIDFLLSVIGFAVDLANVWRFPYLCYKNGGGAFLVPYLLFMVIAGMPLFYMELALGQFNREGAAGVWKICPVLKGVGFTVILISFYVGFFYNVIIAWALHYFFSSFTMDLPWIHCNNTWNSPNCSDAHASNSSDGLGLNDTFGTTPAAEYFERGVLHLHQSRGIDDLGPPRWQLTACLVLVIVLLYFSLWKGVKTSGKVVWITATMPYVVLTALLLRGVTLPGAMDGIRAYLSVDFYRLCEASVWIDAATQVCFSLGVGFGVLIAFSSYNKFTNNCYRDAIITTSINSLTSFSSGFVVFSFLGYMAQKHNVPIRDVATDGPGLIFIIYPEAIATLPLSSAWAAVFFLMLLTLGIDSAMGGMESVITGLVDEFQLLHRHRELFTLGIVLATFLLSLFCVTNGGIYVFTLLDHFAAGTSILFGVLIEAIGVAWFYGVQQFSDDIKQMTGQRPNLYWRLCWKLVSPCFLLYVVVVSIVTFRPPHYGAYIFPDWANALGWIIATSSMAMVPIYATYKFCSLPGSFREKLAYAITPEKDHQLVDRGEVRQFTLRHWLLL
Experiment: in vitro functional uptake, rat DAT
Type: cell-based
measured.metric: EC50 (µM)
Return type: number; implicit unit µM.

Query: Let me know recorded EC50 for CC1CCC(COc2ccc(C(F)(F)F)cc2)CN1CC1(c2ccc(Cl)cc2)CCC1 (centres unmarked) [(3)] , thanks.
Reply: 0.05

Query: Output measured EC50 for this item: CC1CCN(CC2(c3ccc(Cl)cc3)CCC2)CC1COc1ccc(C(F)(F)F)cc1 (centres unmarked) [(1)]
Reply: 0.08

---

Assay: in vivo
Settings: rat
measured.metric: Vd (L/kg)
Number only, in L/kg; omit the unit.

Query: For CC1CCC(COc2ccc(C(F)(F)F)cc2)CN1CC1(c2ccc(Cl)cc2)CCC1 (centres unmarked) , write its Vd.
Reply: 10

Query: Indicate the recorded Vd value for this compound: CC1CCN(CC2(c3ccc(Cl)cc3)CCC2)CC1COc1ccc(C(F)(F)F)cc1 (centres unmarked)
Reply: 6

---

Biological target: NET (h) (Homo sapiens)
Construct: expressed in transfected cells; host or cells: MDCK
Sequence (P23975 whole entry): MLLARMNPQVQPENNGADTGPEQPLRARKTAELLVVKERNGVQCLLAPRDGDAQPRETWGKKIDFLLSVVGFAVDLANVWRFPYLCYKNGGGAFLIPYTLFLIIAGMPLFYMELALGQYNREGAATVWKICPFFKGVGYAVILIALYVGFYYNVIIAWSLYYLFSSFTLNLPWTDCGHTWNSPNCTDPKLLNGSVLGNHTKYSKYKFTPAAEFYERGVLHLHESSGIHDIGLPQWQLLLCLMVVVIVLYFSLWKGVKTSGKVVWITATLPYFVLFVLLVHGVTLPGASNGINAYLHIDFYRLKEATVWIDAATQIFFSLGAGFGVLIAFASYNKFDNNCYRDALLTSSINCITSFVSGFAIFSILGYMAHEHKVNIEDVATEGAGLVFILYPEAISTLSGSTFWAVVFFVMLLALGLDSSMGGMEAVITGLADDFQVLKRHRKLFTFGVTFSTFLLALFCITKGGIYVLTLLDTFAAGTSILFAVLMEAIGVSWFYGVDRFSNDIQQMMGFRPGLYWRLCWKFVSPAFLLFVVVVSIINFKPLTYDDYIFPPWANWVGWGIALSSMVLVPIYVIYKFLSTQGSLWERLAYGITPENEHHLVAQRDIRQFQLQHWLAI
Experiment: cell-based
Format: cell-based
Conditions: human; nM; read-out: NET (h) in vitro functional uptake
The recorded EC50 of each item maps onto one of these classes: group A: < 5 nM; group B: ≥ 5 nM and < 200 nM; group C: ≥ 200 nM

Query: The entry to classify is CC1CCN(CC2(c3ccc(Cl)cc3)CCC2)CC1COc1ccc(C(F)(F)F)cc1 (stereo not shown) ; which class holds it?
Reply: group C

Query: Lab log: `C[C@H]1CC[C@@H](COc2ccc(C(F)(F)F)cc2)CN1C[C@H](O)C1(c2ccc(Cl)cc2)CCC1` — assign EC50 category
Reply: group A

Query: Exercise: read the entry `C[C@@H]1CC[C@H](COc2ccc(C(F)(F)F)cc2)CN1C[C@H](O)C1(c2ccc(Cl)cc2)CCC1` and state which class it falls under.
Reply: group B

Query: Class label required: `C[C@H]1CCN(CC2(c3ccc(Cl)cc3)CCC2)C[C@@H]1COc1ccc(C(F)(F)F)cc1`
Reply: group B

Query: // return the class label for `C[C@H]1CC[C@@H](COc2ccc(C(F)(F)F)cc2)CN1CC1(c2ccc(Cl)cc2)CCC1`
Reply: group B

Query: Class for C[C@@H]1[C@H](COc2ccc(C(F)(F)F)cc2)CCCN1CC(O)C1(c2ccc(Cl)cc2)CCC1 (stereo partly shown) ?
Reply: group A

Query: The entry to classify is `C[C@@H]1CC[C@H](COc2ccc(C(F)(F)F)cc2)CN1C[C@@H](O)C1(c2ccc(Cl)cc2)CCC1` ; which class holds it?
Reply: group A

Query: Category lookup for the compound CN[C@H](CC(C)C)C1(c2ccc(Cl)cc2)CCC1 [R-DMS, reference compound]
Reply: group C

Query: Input `C[C@@H]1CCN(CC2(c3ccc(Cl)cc3)CCC2)C[C@H]1COc1ccc(C(F)(F)F)cc1` ; output its category
Reply: group C

Query: Into which bin does this compound go? `C[C@H]1CCN(CC2(c3ccc(Cl)cc3)CCC2)C[C@H]1COc1ccc(C(F)(F)F)cc1`
Reply: group B

---

Test: in vivo
Conditions: rat, po
measured.metric: bioavailability (%)
Numeric only. Scale: %

Query: Please report the measured bioavailability for CC1CCC(COc2ccc(C(F)(F)F)cc2)CN1CC1(c2ccc(Cl)cc2)CCC1 (centres unmarked)
Reply: 70

Query: Look up and report measured bioavailability for this entry: CC1CCN(CC2(c3ccc(Cl)cc3)CCC2)CC1COc1ccc(C(F)(F)F)cc1 (centres unmarked)
Reply: 40

---

Please go through the items and note down their pIC50.
Biological target: DAT (SLC6A3) (Homo sapiens, UniProt Q01959)
Sequence (Q01959 whole entry): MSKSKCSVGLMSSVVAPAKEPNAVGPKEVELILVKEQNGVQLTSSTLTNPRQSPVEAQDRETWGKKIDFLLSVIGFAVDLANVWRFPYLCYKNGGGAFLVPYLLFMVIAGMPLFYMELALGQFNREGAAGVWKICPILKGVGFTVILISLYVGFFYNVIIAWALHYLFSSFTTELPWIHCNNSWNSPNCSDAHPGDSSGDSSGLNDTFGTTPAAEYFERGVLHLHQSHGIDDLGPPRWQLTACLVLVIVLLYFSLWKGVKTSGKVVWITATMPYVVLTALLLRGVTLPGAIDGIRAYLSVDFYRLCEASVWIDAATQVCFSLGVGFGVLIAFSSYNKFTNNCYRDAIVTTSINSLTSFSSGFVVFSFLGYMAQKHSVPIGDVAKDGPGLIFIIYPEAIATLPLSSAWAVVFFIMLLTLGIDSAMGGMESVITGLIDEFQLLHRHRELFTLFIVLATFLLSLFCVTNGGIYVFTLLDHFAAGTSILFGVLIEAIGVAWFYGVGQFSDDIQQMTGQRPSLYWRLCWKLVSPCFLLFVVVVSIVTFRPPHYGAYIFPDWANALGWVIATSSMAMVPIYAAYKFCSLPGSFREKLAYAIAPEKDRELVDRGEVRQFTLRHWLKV
Assay: in vitro inhibition profile, IC50 of DAT (uptake assay)
Formally, pIC50 is defined as -log10 of the concentration c, with c in mol/L.

Query: Give recorded pIC50. CC1CCN(CC2(c3ccc(Cl)cc3)CCC2)CC1COc1ccc(C(F)(F)F)cc1 (stereo not drawn)
Reply: 9.00

Query: Provide only the value of recorded pIC50 for CC1C(COc2ccc(C(F)(F)F)cc2)CCCN1CC1(c2ccc(Cl)cc2)CCC1 (stereo not drawn)
Reply: 8.30

Query: For the compound CC1CCC(COc2ccc(C(F)(F)F)cc2)CN1CC1(c2ccc(Cl)cc2)CCC1 (stereo not drawn) , report pIC50.
Reply: 9.00

---

Target: 5-HT (h) (Homo sapiens)
Construct: expressed in transfected cells; host or cells: HEK-293
Experiment: cell-based
Assay type: cell-based
Conditions: read-out: 5-HT (h) in vitro functional uptake
measured.metric: pEC50
Convention used: pEC50 is expressed as -log10 of the molar concentration.

Query: Consider the compound CC1CCC(COc2ccc(C(F)(F)F)cc2)CN1CC1(c2ccc(Cl)cc2)CCC1 (stereo not shown) . State its measured pEC50.
Reply: 6.08

---

Assay: in vivo
Settings: rat, iv
measured.metric: half-life (h)
Your answer is read as h, so omit the unit and give the number.

Query: Given CC1CCC(COc2ccc(C(F)(F)F)cc2)CN1CC1(c2ccc(Cl)cc2)CCC1 (centres unmarked) [(3)] , respond with its half-life.
Reply: 8.33

Query: Using known records, supply half-life for CC1CCN(CC2(c3ccc(Cl)cc3)CCC2)CC1COc1ccc(C(F)(F)F)cc1 (centres unmarked) [(1)]
Reply: 3.33

---

Target: 5-HT (Homo sapiens, UniProt P31645)
Sequence (P31645 whole entry): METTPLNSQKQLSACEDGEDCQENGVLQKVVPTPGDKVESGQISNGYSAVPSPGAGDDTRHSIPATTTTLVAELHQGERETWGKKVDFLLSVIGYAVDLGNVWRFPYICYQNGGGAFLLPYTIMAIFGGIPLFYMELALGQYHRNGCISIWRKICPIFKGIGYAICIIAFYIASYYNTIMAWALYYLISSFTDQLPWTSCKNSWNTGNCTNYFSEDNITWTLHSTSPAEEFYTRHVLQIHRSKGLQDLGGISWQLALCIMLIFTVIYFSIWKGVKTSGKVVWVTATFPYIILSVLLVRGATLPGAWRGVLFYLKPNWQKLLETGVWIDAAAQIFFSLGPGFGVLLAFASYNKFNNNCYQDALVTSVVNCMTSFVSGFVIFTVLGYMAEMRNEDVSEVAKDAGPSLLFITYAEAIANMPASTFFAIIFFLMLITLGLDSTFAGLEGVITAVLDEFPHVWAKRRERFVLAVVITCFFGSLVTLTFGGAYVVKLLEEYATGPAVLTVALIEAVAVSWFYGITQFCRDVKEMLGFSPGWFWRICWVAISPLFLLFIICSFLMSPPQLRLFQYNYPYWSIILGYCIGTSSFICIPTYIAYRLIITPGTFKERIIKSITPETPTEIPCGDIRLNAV
Assay: cell-based
Conditions: own compounds tested as racemic mixtures of enriched diastereomers
measured.metric: IC50
Please answer in the form of a number followed by its unit of measurement.

Query: Kindly indicate its recorded IC50. Item: CC1CCN(CC2(c3ccc(Cl)cc3)CCC2)CC1COc1ccc(C(F)(F)F)cc1 (stereo not shown)
Reply: 1200 nM

---

Molecular target: 5-HT (h) (Homo sapiens, UniProt P31645)
Construct: expressed in transfected cells; host or cells: HEK-293
Assay: cell-based
Assay type: cell-based
Conditions: human; nM; read-out: 5-HT (h) in vitro functional uptake
measured.metric: EC50

Query: Quote 5-HT (h) (Homo sapiens, UniProt P31645) EC50 for entry C[C@H]1CCN(CC2(c3ccc(Cl)cc3)CCC2)C[C@@H]1COc1ccc(C(F)(F)F)cc1 [(14)] .
Reply: > 2000 nM

Query: Output reported EC50 of the compound C[C@@H]1CC[C@@H](COc2ccc(C(F)(F)F)cc2)CN1C[C@@H](O)C1(c2ccc(Cl)cc2)CCC1 [(21)] on 5-HT (h) (Homo sapiens, UniProt P31645).
Reply: 10 nM

Query: // fetch EC50; item: C[C@H]1CCN(CC2(c3ccc(Cl)cc3)CCC2)C[C@H]1COc1ccc(C(F)(F)F)cc1 [(16)] ; system: 5-HT (h) (Homo sapiens, UniProt P31645)
Reply: > 2000 nM

Query: Supply EC50 measured with 5-HT (h) (Homo sapiens, UniProt P31645) for CN[C@H](CC(C)C)C1(c2ccc(Cl)cc2)CCC1 [R-DMS, reference compound] .
Reply: 1500 nM

Query: Tell me its EC50 on 5-HT (h) (Homo sapiens, UniProt P31645): C[C@H]1CC[C@@H](COc2ccc(C(F)(F)F)cc2)CN1C[C@@H](O)C1(c2ccc(Cl)cc2)CCC1 [(17)]
Reply: > 2000 nM

Query: Give EC50 for this entry on 5-HT (h) (Homo sapiens, UniProt P31645): C[C@@H]1CC[C@H](COc2ccc(C(F)(F)F)cc2)CN1C[C@H](O)C1(c2ccc(Cl)cc2)CCC1 [(19)]
Reply: > 2000 nM

Query: Provide EC50, tested on 5-HT (h) (Homo sapiens, UniProt P31645), for C[C@H]1CC[C@@H](COc2ccc(C(F)(F)F)cc2)CN1CC1(c2ccc(Cl)cc2)CCC1 [(13)] .
Reply: > 2000 nM

Query: State, for 5-HT (h) (Homo sapiens, UniProt P31645), measured EC50 of the compound listed here: C[C@@H]1CCN(CC2(c3ccc(Cl)cc3)CCC2)C[C@H]1COc1ccc(C(F)(F)F)cc1 [(15)]
Reply: > 2000 nM

Query: State, for 5-HT (h) (Homo sapiens, UniProt P31645), measured EC50 of the compound listed here: CC(C)C[C@@H](N)C1(c2ccc(Cl)cc2)CCC1 [R-DDMS, reference compound]
Reply: 1500 nM

Query: Give measured EC50 for C[C@@H]1CC[C@H](COc2ccc(C(F)(F)F)cc2)CN1C[C@@H](O)C1(c2ccc(Cl)cc2)CCC1 [(20)] (5-HT (h) (Homo sapiens, UniProt P31645)).
Reply: 20 nM

Query: Output reported EC50 of the compound C[C@H]1CC[C@@H](COc2ccc(C(F)(F)F)cc2)CN1C[C@H](O)C1(c2ccc(Cl)cc2)CCC1 [(18)] on 5-HT (h) (Homo sapiens, UniProt P31645).
Reply: > 2000 nM
